# Measured Target: Uric acid-xanthine permease (Emericella nidulans (strain FGSC A4 / ATCC 38163 / CBS 112.46 / NRRL194 / M139) (Aspergillus nidulans)) (UniProt Q07307)
# Sequence (Q07307 whole entry, looked up): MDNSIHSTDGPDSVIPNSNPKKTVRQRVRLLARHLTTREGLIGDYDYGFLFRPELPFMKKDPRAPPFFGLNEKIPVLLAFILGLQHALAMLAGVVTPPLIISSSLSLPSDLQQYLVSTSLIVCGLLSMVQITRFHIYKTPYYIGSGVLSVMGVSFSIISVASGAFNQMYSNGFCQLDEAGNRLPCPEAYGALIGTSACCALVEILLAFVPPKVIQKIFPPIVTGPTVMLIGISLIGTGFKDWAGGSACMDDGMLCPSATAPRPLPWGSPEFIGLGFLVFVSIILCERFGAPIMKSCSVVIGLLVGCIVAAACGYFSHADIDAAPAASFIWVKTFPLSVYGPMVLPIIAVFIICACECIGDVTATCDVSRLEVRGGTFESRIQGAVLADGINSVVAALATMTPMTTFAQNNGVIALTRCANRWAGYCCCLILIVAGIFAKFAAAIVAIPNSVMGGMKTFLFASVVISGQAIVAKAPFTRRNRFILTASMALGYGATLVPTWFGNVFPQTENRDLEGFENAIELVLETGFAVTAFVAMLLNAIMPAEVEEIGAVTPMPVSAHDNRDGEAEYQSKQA
# Test: Inhibition of fungal UapA expressed in Aspergillus nidulans assessed as reduction in UapA-mediated [8-3H]-xanthine accumulation at 0.5 mM
# Experimental Parameters: Fungi
Active and inactive are the calls of the source. The calls are words filed in the database; no cut-off is given here.
Metric: inhibition

>>> assay_result("c1ccc(CNc2nccc3[nH]c(-c4ccncc4)nc23)cc1")
"inactive"
>>> assay_result("Nc1ccnc2c1nc(-c1ccccc1O)n2Cc1ccccc1")
"inactive"
>>> assay_result("CN1CCN(c2nccc3c2nc(-c2ccccc2O)n3Cc2ccccc2O)CC1")
"inactive"

###

# Measured Target: Uncharacterized protein (Emericella nidulans (strain FGSC A4 / ATCC 38163 / CBS 112.46 / NRRL194 / M139) (Aspergillus nidulans), UniProt G5EB00)
# Sequence (G5EB00 whole entry): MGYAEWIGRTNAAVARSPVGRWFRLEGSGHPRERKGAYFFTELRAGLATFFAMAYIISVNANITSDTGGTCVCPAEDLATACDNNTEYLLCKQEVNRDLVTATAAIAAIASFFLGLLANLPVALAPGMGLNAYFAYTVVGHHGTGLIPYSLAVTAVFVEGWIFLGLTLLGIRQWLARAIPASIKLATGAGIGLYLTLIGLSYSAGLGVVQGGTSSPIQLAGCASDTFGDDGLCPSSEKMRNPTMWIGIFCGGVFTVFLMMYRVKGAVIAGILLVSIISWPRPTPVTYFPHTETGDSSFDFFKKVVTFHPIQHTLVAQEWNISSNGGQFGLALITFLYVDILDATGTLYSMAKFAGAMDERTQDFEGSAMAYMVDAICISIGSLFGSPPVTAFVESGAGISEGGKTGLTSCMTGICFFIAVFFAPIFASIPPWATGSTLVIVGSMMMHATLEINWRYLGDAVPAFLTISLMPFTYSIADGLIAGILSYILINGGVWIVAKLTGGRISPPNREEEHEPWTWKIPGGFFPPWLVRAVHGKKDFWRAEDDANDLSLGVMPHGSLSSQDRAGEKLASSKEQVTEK
# Test: Inhibition of fungal AzgA expressed in Aspergillus nidulans assessed as reduction in AzgA-mediated [2,8-3H]-adenine accumulation
Metric: Ki (µM)
One number for each entry, in µM.

Entry Oc1ccccc1-c1nc2c(NCc3ccccc3)nccc2[nH]1 , Ki reported as 58

###

# System: Fungi
# Test: Inhibition of fungal FcyB expressed in Aspergillus nidulans assessed as reduction in FcyB-mediated at 0.5 mM
The source made the active and inactive calls. The rule behind the calls is not given here.
Metric: inhibition

>>> assay_result("Nc1ccnc2c1nc(-c1ccccc1O)n2Cc1ccccc1")
"inactive"
>>> assay_result("Nc1ccnc2c1nc(-c1ccc([N+](=O)[O-])cc1)n2Cc1ccccc1")
"inactive"
>>> assay_result("Nc1ccnc2c1nc(O)n2Cc1ccccc1")
"inactive"
>>> assay_result("Nc1ccnc2c1nc(S)n2Cc1ccccc1")
"inactive"

For every item in the list below, what is its measured inhibition?
1. COc1ccc(OC)c(-c2nc3c(N)ccnc3n2Cc2ccccc2)c1
2. CN1CCN(c2nccc3c2nc(-c2ccccc2O)n3Cc2ccccc2O)CC1
3. Nc1ccnc2c1nc(-c1ccncc1)n2Cc1ccccc1

Output line:
1: inactive; 2: inactive; 3: inactive
